# assay_system: T1, Human CXCR2 (human, UniProt P25025 1-360)
# T1 sequence: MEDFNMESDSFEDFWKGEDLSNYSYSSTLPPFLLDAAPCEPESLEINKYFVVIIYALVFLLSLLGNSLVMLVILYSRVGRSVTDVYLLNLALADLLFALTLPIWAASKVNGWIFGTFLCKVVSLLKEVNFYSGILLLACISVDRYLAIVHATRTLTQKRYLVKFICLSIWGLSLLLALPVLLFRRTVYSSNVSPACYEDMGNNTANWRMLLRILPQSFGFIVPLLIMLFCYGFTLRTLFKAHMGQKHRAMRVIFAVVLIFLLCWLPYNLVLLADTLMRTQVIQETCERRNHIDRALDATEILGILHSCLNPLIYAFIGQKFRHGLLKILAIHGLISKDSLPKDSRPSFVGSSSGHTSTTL
# assay_explanation: cell-based or functional assay
Human WBSC IC50 (rhGROα) values for the binders below.
Give your result in nM as a bare value.

- binder: "CXCR20033 (bispecific antibody, Biparatopic: two VHH joined by a GlySer linker; also called 163E3-35GS-2B2; 163E3-2B2; not shown: C-terminal c-myc tag and His6 tag coded by pAX100) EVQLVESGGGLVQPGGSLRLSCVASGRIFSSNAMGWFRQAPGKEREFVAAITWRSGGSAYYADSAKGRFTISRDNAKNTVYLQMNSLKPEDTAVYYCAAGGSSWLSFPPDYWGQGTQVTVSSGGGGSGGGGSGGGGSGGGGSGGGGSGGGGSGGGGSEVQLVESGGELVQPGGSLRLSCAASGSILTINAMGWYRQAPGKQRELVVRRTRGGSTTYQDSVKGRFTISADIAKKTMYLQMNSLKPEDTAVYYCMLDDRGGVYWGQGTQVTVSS"
  Human WBSC IC50 (rhGROα) (nM): 0.345

In plain terms, CXCR20020 (bispecific antibody, Biparatopic: two VHH joined by a GlySer linker; also called 127D1-35GS-163D2; 127D1-163D2; not shown: C-terminal c-myc tag and His6 tag coded by pAX100) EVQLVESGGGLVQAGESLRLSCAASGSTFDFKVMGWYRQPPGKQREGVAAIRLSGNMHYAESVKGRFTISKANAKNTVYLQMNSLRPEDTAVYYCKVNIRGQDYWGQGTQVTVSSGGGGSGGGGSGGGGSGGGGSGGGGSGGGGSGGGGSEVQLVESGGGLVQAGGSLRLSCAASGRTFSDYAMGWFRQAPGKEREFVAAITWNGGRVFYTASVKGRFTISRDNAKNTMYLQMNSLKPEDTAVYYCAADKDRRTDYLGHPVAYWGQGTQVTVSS has a documented Human WBSC IC50 (rhGROα) of 0.17
